# assayRemarks: yeast display, Sf9 membrane polyspecificity reagent, FACS + sequencing; frameworks hold sequencing errors
measuredQuantity: polyreactivity (PSR sort gate)

Please review the entries below; each comes with its answer.
QVQLVESGGGLVQAGGSLRLSCAASGSILFGNAMGWYRQAPGKERELVAAITVSGGSTYYADSVKGRFTISRDNAKNTVYLQMNSLKPEDTAVYYCAAGGWWHYRPQSYSGPFDYWGQGTQVTVSS; low polyreactivity
QVQLVESGGGLVQAGGSLRLSCAASGILLFNAMGWYRQAHGKERELVAAINSGGSTNYADSVKGRFPISRDNAKNTGYLQMNSLKPEDTAVYYCAKDTPFTLRVWAEGGMDYWGQGTQVTVSS; low polyreactivity
QVQLVESGGGLVQAGGSLRLSCAASGSIFRWYAMGWYRQAPGKERELVAAISKSGGTTYYADSVKGRFTISRDNAKNTVYLQMNSLKPEDTAVYYCAARRYPYGGYGYRYDYWGQGTQVTVSS; high polyreactivity
QVQLVESAGGLVQAGGSLRLSCAASGYTFPFYTMGWYRQAPGKERELVAAITDTGGGTYYADSVKGRFTISRDNAKNTVYLQMNSLNPEDTAVYYCAKPTSYRGYYSWGQGTQVTVSS; high polyreactivity

Now consider a different sequence.
Input line: Which polyreactivity (PSR sort gate) value is on record for QVQLVESGGGIVQAGGSLRLSCAASGRIFSSYAMGWYRQAPGKERELVAAITRGGSTYYADSVKGRFTISRDNANNTVHLQMNSLKPEDPAVYYCAARPPYRYWFWGNEDYWGQGTQVTVSS ?
Output line: high polyreactivity

* * *

# assayRemarks: yeast display, Sf9 membrane polyspecificity reagent, FACS + sequencing; frameworks hold sequencing errors
measuredQuantity: polyreactivity (PSR sort gate)

Recorded polyreactivity (PSR sort gate), per entry:
QDQLVESGGGLVHAGGSLRLSCAASGRTFFVYAMGWYRHAPGKEREMVANINQGGGSTSYADSVKGRFTISRDNAKNNVYLQMNSLKPEDTAVYYCNADHYGIGYDPVPLGFVGYDYWGQGTQVTVSS; low polyreactivity
QVQLVESGGGLVQAGGSLRLSCAASGSIFTRNAMGWYRQAPGKERELVATIRKNGASTTYADSVKGRFTISRDNAKNTVYLQMNSLKQEDTAVYYCARDHHTKYNYWGQGTQVTVSS; low polyreactivity
QVQLVESGGGLVQAGGSLRLSCAASGSIFYKNAMGWYRQAPGKERELVAAITYSGGSTYYADSVKGRFTISRDNAKNTVYLQMNSLKPEDTAVYYCAADIGVYGERREEEYDYWGQGTQVTVSS; low polyreactivity
QVQLVESGGGLVQAGGSLRLSCAASGRTFGYYDMGWYRQAPGKGRELVAAITYSGGNTYYADSVKGRFTISRDNAKITVYLQMNSLKPEDTAVYSCAARSSFFPSYSRYDYWGQGTQVTVSS; high polyreactivity
QVQLVESGGGLVQAGGSLRLSCAASGFTFSWYAMGWYRQAPGKERELVAAINADGGTTYYADSVKGRFTISRDNAKNTVYLQMNSLKPEDTAVYYCAVPYPYGYEYDHWGQGTQVTVSS; low polyreactivity

# return polyreactivity (PSR sort gate) for each item in the list
1. QVQLVESGGGLVQAGGSLRLTCAASGSIFYVNAMGWYRQAPGKERELVAAISVRGGRTYYADSVKGRFTISRDNAKNTVYLQMNSLKPEDTAVYYCATRISTVGRYDYWGQGTQVTVSS
2. QVQLVESGGGLVQAGGSLRLSCAASGSTFVRYAMGWYRQAPGKERELVAAITGTGSSTYYADSVKGRFTISRDNAKNTVYLQMNSLKPEDTAVYYCAKRWRTVFGYDYWGQGTQVTVSS
3. QVQLVESGGGLVQAGGSLRLSCAASGLIFPYYAMGWYREAPGKARELVASIRYSAGNTYYADSVKGRFTISRDNAKNTVYLQMNSLKPEDTAVYYCWYTQNTLGNYWGQGTQVTVSS
4. QVKLVESGGGLVQAGGSLRLSCAASGSIFVGYAIVWYRQAPGKERELVAAISTRGGSTYYADSVKGRFTISRENAKNTVYLKMNSLTPEDTAVYYCAADYLDSTYGYVYGWDDYWGQGTQVTVSS
5. QVQLVESGGGLVQAGGSLRLSCAASGSTFRYNAMGWYRQAPGKERELVAAITGSGDRTFYADSVKGRFTISRDNAKNTVYLQMNSLKPEDTAVYYCAARSRYPFSYGYYYWGQGTQVTVSS
6. QVQHVESGGGLVQAGGSLRLSCAASGRIFYAYAMGWYRQAPGKQREMVAAITARGGSTYYADSVKGRFTISRDNAKNTVYLQINSLKPEDTAVYYCAKDTLLETGYEYWGQGTQVTVSS

Output line:
high polyreactivity
high polyreactivity
low polyreactivity
low polyreactivity
high polyreactivity
high polyreactivity

* * *

# assayRemarks: yeast display, Sf9 membrane polyspecificity reagent, FACS + sequencing; frameworks hold sequencing errors
measuredQuantity: polyreactivity (PSR sort gate)

Example entries and their recorded answers appear below.
QVQLVESGGGLVQAGGSLRLSCAASGLIFSTNDMGWYRQAPGKERELVAAITSDVSTYYADSVKGRFTISRDNAKNTVYLQMNSLKPEDTAVYYCAKDDSGYINWRYDYWGQGTQVTVSS; low polyreactivity
QVQLVETGGVLVQAGGSLRLSCAASGSIFQQNAMGGYRQAPGKERELVASISSGGRTNYADSVKGRCTISRDNAKNTVYLQMNSLKPEDTAVYYCAKTRIRYKPLHFYYWGQGTQVTVSS; low polyreactivity
QVQLVESGGGLVQAGGSLRLSCAASGFIFDYNAMVWYRQAPGKERELVAAISISGGGTYYADSVKGRFTISRDNAKNTVYLQMNSLKPEDTAVYYCATAGRYDAYDYWGQGTQVTVSS; low polyreactivity
QVQLVESGGGLVQAGGSLRLSCAASGITFKFNAMGWYRQAPGKERELVAAISVRGGRTYYADSVKGRFTISRDNAKNTVYLQMNSLKPEDTAVYYCAATDWFYSYYLGYGYGYWGQGTQVTVSS; high polyreactivity

Input line: For QVQLVESGGGLVQAGGSLRLSCAASGRIFRWYAMGWYRQAPGKERELVAAITRSGSTTYYADSVKGRFTISRDNAKNAVYLQMNSLKPEDTAVSYSAAGYRGGYGWSVRMDYWGQGTQVTVSS , what is its reported polyreactivity (PSR sort gate)?
Output line: high polyreactivity

* * *

# assayRemarks: yeast display, Sf9 membrane polyspecificity reagent, FACS + sequencing; frameworks hold sequencing errors
measuredQuantity: polyreactivity (PSR sort gate)

QVQLVESGGGLVQAGGSLRLSCAASGLIIRYYAMGWYRQAPGKERELVAAISYNGGSTYYADSVKGRFTISRDNAKNTVYLQMNSLKPEDTAVYYCAARGRYRIGPGRYGKRYDYWGQGTQVTVSS; high polyreactivity
QVQIEESGGGLVQAGGSIRLSCAASGRIFFLNAMGWYRQAPGKERELVAAISKSGGSTYYADSEKGRFTISRDNAKNTGFLQMNSLKPEDTAVYYCAARLHRFIRVDFGYDYWGQGTQVTVSS; high polyreactivity
QVQLVESGGGLVQAGGSLRLTCAASGSTFEVYAMGWYRQAPGKEREFVAAITVDGGSTYYADSVKGRFTISRDNAKNTVYLQMNSLKPEDTAVYYCAADSGSWEYYYWGQGTQVTVSS; low polyreactivity
QVQLVESGGGLVQAGGSLRLSCAASGFIFRNYAMGWSRQAPGKERELVAAITRSGTSTYYADSVKGRFTISRDNAKNTVYLQMNSLKPEDTAVYYCNAGWGLRLSWLGNYWGQGTQVTVSS; high polyreactivity
QVQLVESGGGLVQAGGSLRLSGAASGRIFAQYAMGWYRPAPAKERELVAAITAGDDTYADSVKGRFTISRDNAKNTVYLQMNSLKPEDTAVYYCAAETWDLTWWGAYDLGEYWGQGTQVTVSS; high polyreactivity

Field: polyreactivity (PSR sort gate). Fill in for each record below.
1. QVQLVESGGGLVQAGGSLRLSCAASGSTFVRYVMGWYRQAPGKERELVAAISRRGGSTYYADSVKGRFTISRDNAKNTVYLQMHSLKPEDSAVYYCARTVGYSTLLESVSWGQGTQLTVSS
2. QVQLVESGRGLVQAGGSLRLSCAASGRIFHYNAMVWYRQAPRKERELVAAISGSGGSTYYADTVKGRFTISRDIAKNTVYLQMNSLKPEDTADYYCGDKRRTLGGYWGQGTQVTVSS
3. QVQLVETGRGLVQAGGSLRLSSAASGSTFGPNAMGWYRQAHGKVRELVAAITWSGSTTYYADSVKGRFTISRDIAKNTVYLQMNSLKPEDTPVYYCAALRGYRSNWRYGYWGQGTQVTVSS

Output line:
["high polyreactivity", "high polyreactivity", "low polyreactivity"]

Give me polyreactivity (PSR sort gate) for each of these sequences, listed below.
1. QDQLVESGGGIVQAGGSLRLSCAASGFTFFANTMGWSRQAPGKERELVAVISSTVGYTYYADSVKGRFTISRDNAKNTVYLQMNSLKPEDTAVYYCAAKSIYDGFPYYLFDYWGQGSQVTVSS
2. QVQLVESGGGLVQAGGSLRLSCAASGITFRWNAMGWYRQAPGKERELVAAITTRGGGTYYADSVKGRFTISRDNAKNTVYLQMNSLKPEDTAVYYCGAKKSRYPYNYWGQGTQVTVSS
3. QVQIVETGGGLVQAGGSLRLSCAASGSIFSAYVMGWYRQAPGKERELVAAITRTGGRTYYADSVKGRFTISRDNAKNTVYLQMNSLKPEDTAVYYCAKEAITRTFPYRHEYWGQGTQVTVSS

Output line:
1: high polyreactivity; 2: high polyreactivity; 3: low polyreactivity
